molecular target: KCNQ2/Q3 (Homo sapiens, UniProt O43525+O43526); assay: Opener potency on KCNQ2/Q3 by leftward shift of half-activation potential (ΔV50) versus concentration, Hill fit; format: cell-based; design: expressed in transfected cells; settings: Hill fit, compound alone; read-out: EC50 of leftward shift of the half-activation potential (ΔV50)
endpoint.name: EC50 (µM)
# output: bare number, implied unit µM

Entry under test: Cc1ccc(Cl)c(Nc2ccccc2C(=O)O)c1Cl [Compound 1, Meclofenamic acid] . Its EC50 was 25.7

---

target: KCNQ2/3 channels (Homo sapiens, UniProt O43525+O43526); test: KCNQ2/3 current in transfected CHO cells, whole-cell patch-clamp; conditions: at −50 mV, CHO cells; read-out: EC50 of concentration-dependent current increase
endpoint.name: pEC50
Scale: pEC50 equals -log10([C]), with [C] in mol/L.

Tested on KCNQ2/3 channels (Homo sapiens, UniProt O43525+O43526), the item O=C(Cc1ccccc1Nc1c(Cl)cccc1Cl)NCCOCCO [Compound 6] showed pEC50 equal to 5.15

---

molecular target: KCNQ2/Q3 (Homo sapiens, UniProt O43525+O43526); test: Opener potency on KCNQ2/Q3 by leftward shift of half-activation potential (ΔV50) versus concentration, Hill fit; assay type: cell-based; design: expressed in transfected cells
endpoint.name: pEC50
Scale: pEC50 equals -log10([C]), with [C] in mol/L.

Tested on KCNQ2/Q3 (Homo sapiens, UniProt O43525+O43526), the item "CCOC(=O)Nc1ccc(NCc2ccc(F)cc2)cc1N" showed pEC50 equal to 5.70

Every entry's value here was drawn from patent US8618169B2.
